# SYSTEM_TESTED: T1, human C1s (human, UniProt P09871 16-688)
# T1 construct: Analyte in the Biacore assays; also called hC1s; serum-derived human C1s (CompTech)
# T1 sequence: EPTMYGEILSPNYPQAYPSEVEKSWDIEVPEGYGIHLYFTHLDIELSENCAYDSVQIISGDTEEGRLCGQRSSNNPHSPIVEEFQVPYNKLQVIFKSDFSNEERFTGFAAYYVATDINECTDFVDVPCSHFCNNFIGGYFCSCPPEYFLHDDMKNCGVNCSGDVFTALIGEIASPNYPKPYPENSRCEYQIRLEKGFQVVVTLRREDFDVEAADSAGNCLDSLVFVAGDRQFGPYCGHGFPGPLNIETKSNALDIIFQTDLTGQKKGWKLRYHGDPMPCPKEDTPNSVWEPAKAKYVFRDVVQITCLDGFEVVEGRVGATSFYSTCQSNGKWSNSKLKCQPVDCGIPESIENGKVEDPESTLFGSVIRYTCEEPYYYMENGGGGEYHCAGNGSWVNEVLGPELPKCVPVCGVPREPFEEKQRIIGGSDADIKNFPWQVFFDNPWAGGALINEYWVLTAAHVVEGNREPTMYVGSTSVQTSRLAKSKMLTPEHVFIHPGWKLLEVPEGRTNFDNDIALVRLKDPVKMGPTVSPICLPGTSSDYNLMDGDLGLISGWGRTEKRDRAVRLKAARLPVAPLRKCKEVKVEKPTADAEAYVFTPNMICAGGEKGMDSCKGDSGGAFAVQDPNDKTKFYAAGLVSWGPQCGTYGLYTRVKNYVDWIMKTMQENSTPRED
# EXPERIMENTAL_PROTOCOL: SPR (Biacore T200, 37C), Ab captured on protein A/G; pH 5.8, 3 uM Ca
QUANTITY_MEASURED: koff (s⁻¹)
Please state the figure in s⁻¹; there is no need to write the unit.

[
  {
    "BINDER": "C1_IPN92H0188-SG4GK/IPN93L0024-SK1 (antibody, human IgG4 S228P, kappa, name in Kabat numbering, V domains shown, Substitutions from IPN009VH2, Kabat numbering; also called IPN92H0188/IPN93L0024) VH: EVMLVESGGGLVKPGGSLRLSCAASGFTFSNYAMSWVRQAPGKGLEWVATISSGGSHTYYLDSVDGRFTISRDNSKDTLYLQMNSLRAEDTALYYCARLFTGHAMDYWGQGTLVTVSS VL: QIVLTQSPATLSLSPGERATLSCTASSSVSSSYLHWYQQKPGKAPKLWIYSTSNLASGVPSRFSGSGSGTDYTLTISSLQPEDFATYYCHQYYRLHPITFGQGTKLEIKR",
    "RECORDED_RESULT": 0.0106
  }
]

The recorded koff for C1_IPN92H0194-SG4GK/IPN93L0024-SK1 (antibody, human IgG4 S228P, kappa, name in Kabat numbering, V domains shown, Substitutions from IPN009VH2, Kabat numbering; also called IPN92H0194/IPN93L0024) VH: EVMLVESGGGLVKPGGSLRLSCAASGFTFSNYAMSWVRQAPGKGLEWVATISSGGSHTYYLDSVKERFTISRDNSKDTLYLQMNSLRAEDTALYYCARLFTGHAMDYWGQGTLVTVSS VL: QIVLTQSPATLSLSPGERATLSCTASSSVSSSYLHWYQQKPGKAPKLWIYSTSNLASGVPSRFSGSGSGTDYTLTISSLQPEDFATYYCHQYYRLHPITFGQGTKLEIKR is 0.00517

koff reported for this binder C1_IPN92H0160-SG4GK/IPN93L0024-SK1 (antibody, human IgG4 S228P, kappa, name in Kabat numbering, V domains shown, Substitutions from IPN009VH2, Kabat numbering; also called IPN92H0160/IPN93L0024) VH: EVMLVESGGGLVKPGGSLRLSCAASGFTFSNYAMSWVRQAPGKGLEWVATISSGGSHTYELDSVKGRFTISRDNSKDTLYLQMNSLRAEDTALYYCARLFTGHAMDYWGQGTLVTVSS VL: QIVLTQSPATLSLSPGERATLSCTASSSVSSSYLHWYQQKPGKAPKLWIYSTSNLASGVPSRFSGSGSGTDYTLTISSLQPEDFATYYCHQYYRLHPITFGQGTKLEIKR : 0.00411

Every entry's value here was drawn from patent US20210032365A1.
